Measured values drawn from patent US9732065B2 for this set.

What Emax at 0.1 µM was measured for each of the following?
# test system: Human dopamine D4 receptor (Homo sapiens, UniProt P21917)
# Sequence (P21917 1-419): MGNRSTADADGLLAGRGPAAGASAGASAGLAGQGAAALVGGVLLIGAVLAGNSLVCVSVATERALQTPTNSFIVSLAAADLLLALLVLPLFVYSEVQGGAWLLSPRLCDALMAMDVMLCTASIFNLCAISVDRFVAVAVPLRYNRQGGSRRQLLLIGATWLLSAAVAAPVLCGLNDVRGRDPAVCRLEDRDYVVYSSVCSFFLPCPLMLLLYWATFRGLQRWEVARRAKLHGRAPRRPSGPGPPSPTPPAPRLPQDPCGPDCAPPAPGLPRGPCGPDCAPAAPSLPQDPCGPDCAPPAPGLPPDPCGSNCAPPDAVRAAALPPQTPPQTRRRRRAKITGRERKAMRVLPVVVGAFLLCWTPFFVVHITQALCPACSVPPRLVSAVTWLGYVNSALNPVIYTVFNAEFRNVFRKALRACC
# assay explanation: Agonistic/antagonistic activity in G protein dependent pathway (aequorin intracellular calcium luminescence), D4
# Type: cell-based
# Design: expressed in transfected cells; host or cells: CHO-K1 or HEK293 cells
# setup conditions: read-out: Maximal activity on each receptor (%): D4
Numbers only, in %.

Please review the entries below; each comes with its answer.
chemical structure | measurement unit | Emax at 0.1 µM
Cc1ncc(CN2CCC(c3ccccn3)CC2)c(N)n1 | % | 59
Cc1ncc(CN2CCC(c3ccccn3)CC2)c(C)n1 | % | 27
Nc1ncc(CN2CCC(c3cccnc3)CC2)cn1 | % | 18
Nc1ncc(CN2CCC(c3cncc(F)c3)CC2)cn1 | % | 14
Cc1ncc(CN2CCC(c3cccnc3)CC2)c(C)n1 | % | 20

Let us move to another entry and its Emax at 0.1 µM.
I'd like to know its Emax at 0.1 µM. The molecule in question is Cc1ncc(CN2CCC(c3cncc(F)c3)CC2)cn1
28

###

What Maximal activity on each receptor (%): α1A was measured for each of the following?
# test system: human adrenergic α1A receptor (Homo sapiens)
# Construct: expressed in transfected cells; host or cells: CHO-K1 or HEK293 cells
# Sequence (P35348 whole entry): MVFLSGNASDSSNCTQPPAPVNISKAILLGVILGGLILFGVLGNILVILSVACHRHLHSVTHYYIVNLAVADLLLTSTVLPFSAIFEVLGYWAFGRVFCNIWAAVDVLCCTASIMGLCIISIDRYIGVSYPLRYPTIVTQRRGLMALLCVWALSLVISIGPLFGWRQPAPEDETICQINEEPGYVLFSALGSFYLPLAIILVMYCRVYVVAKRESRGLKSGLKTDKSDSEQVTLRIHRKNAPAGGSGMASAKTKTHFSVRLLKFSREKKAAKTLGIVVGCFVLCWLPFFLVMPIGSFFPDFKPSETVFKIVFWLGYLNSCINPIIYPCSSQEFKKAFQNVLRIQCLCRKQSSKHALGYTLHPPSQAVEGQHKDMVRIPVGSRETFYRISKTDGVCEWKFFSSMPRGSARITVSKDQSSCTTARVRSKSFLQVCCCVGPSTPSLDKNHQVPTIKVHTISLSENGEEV
# assay explanation: Agonistic/antagonistic activity in G protein dependent pathway (aequorin intracellular calcium luminescence), α1A
# Assay type: cell-based
# setup conditions: 1 μM; 10 μM adrenaline = 100%
Give bare numbers, in %.

Please review the entries below; each comes with its answer.
chemical structure | reported
Cc1ncc(CN2CCC(c3ccccn3)CC2)c(N)n1 | −0.1
Cc1ncc(CN2CCC(c3cccnc3)CC2)c(C)n1 | 0.08
Nc1ncc(CN2CCC(c3cccnc3)CC2)cn1 | 0.44

For each of the compounds below, note its Maximal activity on each receptor (%): α1A.
1. Cc1ncc(CN2CCC(c3cncc(F)c3)CC2)cn1
2. Nc1ncc(CN2CCC(c3cncc(F)c3)CC2)cn1
3. Cc1ncc(CN2CCC(c3ccccn3)CC2)c(C)n1

[0.85, 0.23, 0.01]

###

# test system: Human dopamine D4 receptor (Homo sapiens)
# assay explanation: Agonistic/antagonistic activity in G protein dependent pathway (aequorin intracellular calcium luminescence), D4
# Assay type: cell-based
# Set-up: expressed in transfected cells; host or cells: CHO-K1 or HEK293 cells
# setup conditions: read-out: Maximal activity on each receptor (%): D4
measure: Emax at 1 µM
Field: value (include unit after the number)

Please review the entries below; each comes with its answer.
chemical structure | Emax at 1 µM
Nc1nc(C2CCCC2)ncc1CN1CCC(c2ccccn2)CC1 | 105%
CNc1nc(C)ncc1CN1CCC(c2ccccn2)CC1 | 66%

Let us move to another entry and its Emax at 1 µM.
I'd like to know its Emax at 1 µM. The molecule in question is Cc1ncc(CN2CCC(c3ccccn3)CC2)cn1
82%
